# System: M. tuberculosis H37Rv (ATCC 27294)
# assay name: MIC by broth dilution method, M. tuberculosis H37Rv
# Assay type: cell-based
# experimental context: Mycobacterium tuberculosis, 504 h, broth dilution, 3 weeks; read-out: MIC M. tb H37Rv
value type: log10(MIC) (log10 of the value in µg/mL)
Friendly reminder: values = log10 of MIC, unit µg/mL.

Q: M. tuberculosis H37Rv (ATCC 27294) / log10(MIC) / `C[C@]1(COc2ccccc2-n2cc(COc3ccc(OC(F)(F)F)cc3)nn2)Cn2cc([N+](=O)[O-])nc2O1` : value?
Result: 0.00

Q: M. tuberculosis H37Rv (ATCC 27294) / log10(MIC) / `C[C@]1(COc2ccccc2-n2cc(-c3ccc(F)cc3F)nn2)Cn2cc([N+](=O)[O-])nc2O1` : value?
Result: 0.00

Q: M. tuberculosis H37Rv (ATCC 27294) / log10(MIC) / `C[C@]1(COc2ccc(-n3cc(-c4ccccc4F)nn3)cc2)Cn2cc([N+](=O)[O-])nc2O1` : value?
Result: 0.00

Q: M. tuberculosis H37Rv (ATCC 27294) / log10(MIC) / `C[C@]1(COc2ccc(-n3cc(COc4ccccc4F)nn3)cc2)Cn2cc([N+](=O)[O-])nc2O1` : value?
Result: -0.92

Q: M. tuberculosis H37Rv (ATCC 27294) / log10(MIC) / `C[C@]1(COc2ccc(S(=O)(=O)N3CCOCC3)cc2)Cn2cc([N+](=O)[O-])nc2O1` : value?
Result: -0.30

Q: M. tuberculosis H37Rv (ATCC 27294) / log10(MIC) / `C[C@]1(COc2cccc(-n3cc(COc4ccc(C(F)(F)F)cc4)nn3)c2)Cn2cc([N+](=O)[O-])nc2O1` : value?
Result: 0.30

Q: M. tuberculosis H37Rv (ATCC 27294) / log10(MIC) / `C[C@]1(COc2ccc(-n3nnnc3Oc3ccc(C(F)(F)F)cc3)cc2)Cn2cc([N+](=O)[O-])nc2O1` : value?
Result: 0.60

Q: M. tuberculosis H37Rv (ATCC 27294) / log10(MIC) / `CCc1ccc(NC(=O)Nc2ccc(OC[C@@]3(C)Cn4cc([N+](=O)[O-])nc4O3)cc2)cc1` : value?
Result: -0.30

Q: M. tuberculosis H37Rv (ATCC 27294) / log10(MIC) / `CCCCCCCc1cc(-c2ccc(OC[C@@]3(C)Cn4cc([N+](=O)[O-])nc4O3)cc2)no1` : value?
Result: 0.30

Q: M. tuberculosis H37Rv (ATCC 27294) / log10(MIC) / `C[C@]1(COc2ccc(-n3nnnc3-c3ccc(F)cc3)cc2)Cn2cc([N+](=O)[O-])nc2O1` : value?
Result: 0.60

Q: M. tuberculosis H37Rv (ATCC 27294) / log10(MIC) / `Cc1ccc(OCc2cc(-c3ccc(OC[C@@]4(C)Cn5cc([N+](=O)[O-])nc5O4)cc3)no2)cc1` : value?
Result: -0.30

Q: M. tuberculosis H37Rv (ATCC 27294) / log10(MIC) / `C[C@]1(COc2ccc(S(=O)(=O)N3CCN(c4ccc(OC(F)(F)F)cc4)CC3)cc2)Cn2cc([N+](=O)[O-])nc2O1` : value?
Result: 0.30

Q: M. tuberculosis H37Rv (ATCC 27294) / log10(MIC) / `C[C@]1(COc2ccc(-n3cc(-c4cccc(OC(F)(F)F)c4)nn3)cc2)Cn2cc([N+](=O)[O-])nc2O1` : value?
Result: -0.30

Q: M. tuberculosis H37Rv (ATCC 27294) / log10(MIC) / `C[C@]1(COc2ccc(-n3nnnc3Oc3ccc(F)cc3)cc2)Cn2cc([N+](=O)[O-])nc2O1` : value?
Result: 0.30

Q: M. tuberculosis H37Rv (ATCC 27294) / log10(MIC) / `C[C@]1(COc2ccc(-n3cc(-c4cccc(F)c4)nn3)cc2)Cn2cc([N+](=O)[O-])nc2O1` : value?
Result: 0.30

Q: M. tuberculosis H37Rv (ATCC 27294) / log10(MIC) / `C[C@]1(COc2ccc(-c3cc(-c4ccc(C(F)(F)F)cc4)on3)cc2)Cn2cc([N+](=O)[O-])nc2O1` : value?
Result: 0.00

Q: M. tuberculosis H37Rv (ATCC 27294) / log10(MIC) / `CCCCCc1cn(-c2ccc(OC[C@@]3(C)Cn4cc([N+](=O)[O-])nc4O3)cc2)nn1` : value?
Result: 1.51

Q: M. tuberculosis H37Rv (ATCC 27294) / log10(MIC) / `Cc1ccc(N(C)S(=O)(=O)c2ccc(OC[C@@]3(C)Cn4cc([N+](=O)[O-])nc4O3)cc2)cc1` : value?
Result: 0.60

Q: M. tuberculosis H37Rv (ATCC 27294) / log10(MIC) / `CCCCCc1cc(-c2ccc(OC[C@@]3(C)Cn4cc([N+](=O)[O-])nc4O3)cc2)no1` : value?
Result: 1.51

Q: M. tuberculosis H37Rv (ATCC 27294) / log10(MIC) / `Cc1ccc(-c2cn(-c3ccc(OC[C@@]4(C)Cn5cc([N+](=O)[O-])nc5O4)cc3)nn2)cc1` : value?
Result: 0.00

Q: M. tuberculosis H37Rv (ATCC 27294) / log10(MIC) / `C[C@]1(COc2ccc(-n3cc(-c4cccc(C(F)(F)F)c4)nn3)cc2)Cn2cc([N+](=O)[O-])nc2O1` : value?
Result: 0.30

Q: M. tuberculosis H37Rv (ATCC 27294) / log10(MIC) / `C[C@]1(COc2ccc(-n3nnnc3Oc3ccc(OC(F)(F)F)cc3)cc2)Cn2cc([N+](=O)[O-])nc2O1` : value?
Result: 0.00

Q: M. tuberculosis H37Rv (ATCC 27294) / log10(MIC) / `C[C@]1(COc2ccc(NC(=S)Nc3ccc(F)cc3)cc2)Cn2cc([N+](=O)[O-])nc2O1` : value?
Result: 0.60

Q: M. tuberculosis H37Rv (ATCC 27294) / log10(MIC) / `C[C@]1(COc2ccc(S(=O)(=O)Nc3ccc(OC(F)(F)F)cc3)cc2)Cn2cc([N+](=O)[O-])nc2O1` : value?
Result: 0.30

Q: M. tuberculosis H37Rv (ATCC 27294) / log10(MIC) / `C[C@]1(COc2ccc(S(=O)(=O)N3CCN(c4ccc(F)cc4)CC3)cc2)Cn2cc([N+](=O)[O-])nc2O1` : value?
Result: 0.30

Q: M. tuberculosis H37Rv (ATCC 27294) / log10(MIC) / `C[C@]1(COc2ccc(-c3cc(-c4ccc(OC(F)(F)F)cc4)on3)cc2)Cn2cc([N+](=O)[O-])nc2O1` : value?
Result: -0.30

Q: M. tuberculosis H37Rv (ATCC 27294) / log10(MIC) / `C[C@]1(COc2cccc(-n3cc(COc4ccc(F)cc4)nn3)c2)Cn2cc([N+](=O)[O-])nc2O1` : value?
Result: -0.92

Q: M. tuberculosis H37Rv (ATCC 27294) / log10(MIC) / `C[C@]1(COc2ccc(-n3cc(-c4ccc(F)cc4F)nn3)cc2)Cn2cc([N+](=O)[O-])nc2O1` : value?
Result: 0.30

Q: M. tuberculosis H37Rv (ATCC 27294) / log10(MIC) / `C[C@]1(COc2cccc(-n3cc(COc4ccc(OC(F)(F)F)cc4)nn3)c2)Cn2cc([N+](=O)[O-])nc2O1` : value?
Result: -0.92

Q: M. tuberculosis H37Rv (ATCC 27294) / log10(MIC) / `C[C@]1(COc2ccc(-n3cc(-c4ccccc4C(F)(F)F)nn3)cc2)Cn2cc([N+](=O)[O-])nc2O1` : value?
Result: 0.00
